Protocol: Cytotoxicity against human MIHA cells assessed as reduction in cell viability incubated for 48 hrs by MTT assay
Format: cell-based
Metric name: IC50

Query (compound): O=C(Nc1cc(C(F)(F)F)cc(C(F)(F)F)c1)c1cc(Cl)ccc1O ; field requested: IC50
> 100 µM
